Target: STING (Homo sapiens, UniProt Q86WV6, G230A/H232R/R293Q/R71H)
Sequence (Q86WV6 whole entry R71H/G230A/H232R/R293Q): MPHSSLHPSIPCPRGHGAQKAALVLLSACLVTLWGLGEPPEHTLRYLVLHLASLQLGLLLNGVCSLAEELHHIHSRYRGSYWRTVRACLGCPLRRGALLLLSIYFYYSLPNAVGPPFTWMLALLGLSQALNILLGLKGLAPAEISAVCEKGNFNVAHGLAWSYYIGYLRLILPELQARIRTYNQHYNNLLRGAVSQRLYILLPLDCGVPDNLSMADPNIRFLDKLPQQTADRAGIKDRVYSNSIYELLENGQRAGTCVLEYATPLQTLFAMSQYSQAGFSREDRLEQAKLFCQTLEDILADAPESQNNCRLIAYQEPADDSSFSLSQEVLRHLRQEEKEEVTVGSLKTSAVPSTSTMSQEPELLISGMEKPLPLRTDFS
Assay: STING reporter assay: THP1-Dual KO-IFNAR2 cells stimulated with 2′3′cGAMP, luciferase reporter activity
Type: cell-based
Details: 15 μM 2′3′cGAMP, 24h, numeric bounds
pEC50: −log10 of the molar value.
pEC50: recorded values

Study these solved cases before continuing.
1) CCCCC1CCC(NC(=O)Nc2ccc3[nH]ccc3c2)CC1 (centres unmarked) :: < 5.30
2) Cc1cc(NC(=O)Nc2ccc3[nH]ccc3c2)ccc1C#N :: < 4.52

Field pEC50 (STING (Homo sapiens, UniProt Q86WV6, G230A/H232R/R293Q/R71H)), entry O=C(NCCc1ccc(Br)cc1)Nc1ccc2[nH]ccc2c1 : < 4.52

// returns pEC50 for CCS(=O)(=O)c1ccc(CNC(=O)Nc2ccc3cc[nH]c3c2)cn1 with STING (Homo sapiens, UniProt Q86WV6, G230A/H232R/R293Q/R71H); value = < 4.52

# pEC50 measured on STING (Homo sapiens, UniProt Q86WV6, G230A/H232R/R293Q/R71H) for item CCCCC1CCC(NC(=O)Nc2ccc3[nH]c(C)cc3c2)CC1 (centres unmarked) = < 4.00

Summary: c1cc2nccnc2c(Nc2ccc3cc[nH]c3c2)n1 , STING (Homo sapiens, UniProt Q86WV6, G230A/H232R/R293Q/R71H), pEC50 = < 4.52

Reported STING (Homo sapiens, UniProt Q86WV6, G230A/H232R/R293Q/R71H) pEC50 for item N#Cc1ccc(CNC(=O)Nc2ccc3cc[nH]c3c2)c(C(F)(F)F)c1 was < 4.52

Short answer on STING (Homo sapiens, UniProt Q86WV6, G230A/H232R/R293Q/R71H) for CCCCCNC(=O)Nc1ccc2[nH]ccc2c1 , pEC50: < 4.52

Measured on STING (Homo sapiens, UniProt Q86WV6, G230A/H232R/R293Q/R71H), CC1(CNC(=O)Nc2ccc3cc[nH]c3c2)CCC(F)(F)CC1 has a documented pEC50 of < 4.52

Fill in: STING (Homo sapiens, UniProt Q86WV6, G230A/H232R/R293Q/R71H) pEC50 for Cc1ccc(CNC(=O)Nc2ccc3[nH]ccc3c2)cc1C = < 4.52

The compound Cc1cc(NC(=O)Nc2ccc3c(F)c[nH]c3c2)cnc1N1CCC(F)(F)CC1 , when measured on STING (Homo sapiens, UniProt Q86WV6, G230A/H232R/R293Q/R71H), yielded pEC50 of < 5.95

Considering Cc1ccc(CNC(=O)Nc2ccc3cc[nH]c3c2)cc1C , its pEC50 with STING (Homo sapiens, UniProt Q86WV6, G230A/H232R/R293Q/R71H) was recorded as < 4.52

---

Molecular target: STING (Homo sapiens, UniProt Q86WV6, G230A/H232R/R293Q/R71H)
Experiment: STING reporter assay: THP1-Dual KO-IFNAR2 cells stimulated with 2′3′cGAMP, luciferase reporter activity
Assay type: cell-based
Conditions: 15 μM 2′3′cGAMP, 24h, class symbols
pEC50: −log10 of the molar value.
OBSERVED_PROPERTY: pEC50

1) CC(C)(C)OC(=O)N1CCC(c2ccnc(Nc3ccc4cc[nH]c4c3)n2)CC1 :: 4.00 to 5.30
2) O=C(NCCOc1cccc(Br)c1)Nc1ccc2cc[nH]c2c1 :: 5.30 to 6.00
3) CCCCC1CCC(NC(=O)Nc2ccc3cc(Cl)[nH]c3c2)CC1 (stereo not drawn) :: 4.00 to 5.30
4) Cc1ncccc1-n1cc(C#N)c2ccc(NC(=O)Nc3ccc(C(F)(F)F)cc3)cc21 :: 4.00 to 5.30
5) C#Cc1ccc(NC(=O)Nc2ccc3cc[nH]c3c2)cc1 :: 6.00 to 6.70

// field: pEC50; key: N#Cc1c[nH]c2cc(NC(=O)Nc3ccc(C(F)(F)F)cc3)ccc12 ; value = 6.00 to 6.70

// field: pEC50; key: O=C(NCCSCc1c(Cl)cccc1Cl)Nc1ccc2cc[nH]c2c1 ; value = 5.30 to 6.00

Briefly, pEC50 measured for CC(=O)n1cc(F)c2ccc(NC(=O)Nc3ccc(C(F)(F)F)cc3)cc21 : 6.00 to 6.70

Memo: CCCCC1CCC(NC(=O)Nc2ccc3cc[nH]c3c2)CC1 (stereo not drawn) , reported pEC50: 6.00 to 6.70

---

Target: STING (Homo sapiens, UniProt Q86WV6, G230A/H232R/R293Q/R71H)
Assay: STING reporter assay: THP1-Dual KO-IFNAR2 cells stimulated with 2′3′cGAMP, luciferase reporter activity
Type: cell-based
Details: 15 μM 2′3′cGAMP, 24h, numeric bounds
Recorded measurements of EC50, one per entry

Please review the entries below; each comes with its answer.
1. CCc1ccccc1NC(=O)Nc1ccc2cc[nH]c2c1 [Compound 229] :: > 30 µM
2. CCc1ccc(NC(=O)Nc2ccc3c(NC(=O)Nc4ccc(CC)cc4)c[nH]c3c2)cc1 [Compound 261] :: > 100 µM
3. O=C(NCc1csc(-c2ccc(Cl)cc2)n1)Nc1ccc2[nH]ccc2c1 [Compound 350] :: > 30 µM
4. O=C(Nc1ccc2cc[nH]c2c1)Nc1ccccc1Cl [Compound 194] :: > 30 µM
5. O=C(NCc1ccc(C(F)(F)F)c(Cl)c1)Nc1ccc2[nH]ccc2c1 [Compound 319] :: > 30 µM

EC50 for CCCCC1CCC(NC(=O)Nc2ccc3[nH]c(Cl)cc3c2)CC1 (centres unmarked) [Compound 372] is > 100 µM

Documented EC50 of Cc1ccccc1CNC(=O)Nc1ccc2[nH]ccc2c1 [Compound 338] : > 30 µM

Looking up CCCCCCCCCCCCCCNC(=O)Nc1ccc2[nH]ccc2c1 [Compound 351] , I see its EC50 listed as > 30 µM

Please fill in: EC50 reported for O=C(NCC1(c2cccc(Cl)c2)CCOCC1)Nc1ccc2[nH]ccc2c1 [Compound 274] = > 30 µM

EC50 reading for CCc1ccccc1NC(=O)Nc1ccc2[nH]ccc2c1 [Compound 363, 1-(2-ethylphenyl)-3-(1H-indol-5-yl)urea] : > 30 µM

Looking up O=C1CCc2nc(Nc3ccc4cc[nH]c4c3)ccc21 [Compound 596] , I see its EC50 listed as > 30 µM

---

Biological target: STING (Homo sapiens, UniProt Q86WV6, G230A/H232R/R293Q/R71H)
Test: STING reporter assay: THP1-Dual KO-IFNAR2 cells stimulated with 2′3′cGAMP, luciferase reporter activity
Assay type: cell-based
Settings: 15 μM 2′3′cGAMP, 24h, class symbols
pEC50: −log10 of the molar value.
OBSERVED_PROPERTY: pEC50

For orientation, consider the following solved cases.
1. O=C(Nc1cnc(N2CC(F)(F)C2)c(F)c1)Nc1cc(Cl)c2cc[nH]c2c1 :: 6.00 to 6.70
2. Cc1cc(Nc2ccc3ccc(Cl)cc3n2)cc2[nH]ccc12 :: 5.30 to 6.00
3. FC(F)(F)c1ccc2ccc(Nc3ccc4cc[nH]c4c3)nc2c1 :: 6.00 to 6.70
4. FC(F)c1ccc2ccc(Nc3ccc4cc[nH]c4c3)nc2c1 :: 5.30 to 6.00
5. CNC(=O)Nc1ccc2[nH]cc(NC(=O)Nc3ccc(C(F)(F)F)cc3)c2c1 :: 5.30 to 6.00

Turning now to a further record.
Entry under test: O=C(Nc1ccc(C(F)(F)F)cc1)Nc1cc(-c2ccccc2)c2cc[nH]c2c1 . Its pEC50 was 5.30 to 6.00

---

Biological target: STING (Homo sapiens, UniProt Q86WV6, G230A/H232R/R293Q/R71H)
Assay: STING reporter assay: THP1-Dual KO-IFNAR2 cells stimulated with 2′3′cGAMP, luciferase reporter activity
Assay type: cell-based
Settings: 15 μM 2′3′cGAMP, 24h, class symbols
pEC50: −log10 of the molar value.
OBSERVED_PROPERTY: pEC50

1. FC(F)(F)Oc1ccc2c(Cl)cc(Nc3ccc4cc[nH]c4c3)nc2c1 :: 5.30 to 6.00
2. O=C(Nc1ccc(OC2CC(F)(F)C2)nc1)Nc1ccc2cc[nH]c2c1 :: 6.00 to 6.70
3. CN(C)S(=O)(=O)c1cccc(NC(=O)Nc2ccc3cc[nH]c3c2)c1 :: 4.00 to 5.30
4. O=C(Nc1ccc(S(=O)(=O)C(F)(F)F)cc1)Nc1ccc2[nH]ccc2c1 :: 4.00 to 5.30
5. CCCCc1ccc(NC(=O)Nc2ccc3cc[nH]c3c2)cc1 :: 6.00 to 6.70

Form: molecule = C[C@H](NC(=O)Nc1cc(Cl)c2cc[nH]c2c1)c1cc(Cl)cc(C(F)(F)F)c1 (single isomer, unassigned) ; pEC50 = 6.00 to 6.70

// O=C(Nc1ccc2cc[nH]c2c1)NC1CCC2(CCCCC2)OC1 (stereo not shown) : pEC50 value = 4.00 to 5.30

// sample O=C(Nc1ccc(C(F)(F)F)cc1)Nc1cc(Br)c2cc[nH]c2c1 , its pEC50 was 6.70 to 7.40

For reference, reported pEC50 for O=C(Nc1cccc(C(F)(F)F)c1)Nc1ccc2c(F)c[nH]c2c1 stands at 5.30 to 6.00

The molecule O=C(NCCOc1cccc(C(F)(F)F)c1)Nc1ccc2cc[nH]c2c1 showed pEC50 equal to 6.00 to 6.70

The recorded pEC50 for N#Cc1c[nH]c2cc(NC(=O)Nc3ccc(C(F)(F)F)cc3)cc(F)c12 is 5.30 to 6.00

Short answer for O=C(NCCc1ccc(Br)cc1)Nc1ccc2cc[nH]c2c1 : pEC50 was 6.00 to 6.70
